# target: T1, biotinylated recombinant human IL-12Rβ2 (human, UniProt Q99665 24-622, random biotinylated)
# T1 construct: Recombinant protein produced in-house; also called hIL-12RB2; human IL-12RB2
# T1 sequence: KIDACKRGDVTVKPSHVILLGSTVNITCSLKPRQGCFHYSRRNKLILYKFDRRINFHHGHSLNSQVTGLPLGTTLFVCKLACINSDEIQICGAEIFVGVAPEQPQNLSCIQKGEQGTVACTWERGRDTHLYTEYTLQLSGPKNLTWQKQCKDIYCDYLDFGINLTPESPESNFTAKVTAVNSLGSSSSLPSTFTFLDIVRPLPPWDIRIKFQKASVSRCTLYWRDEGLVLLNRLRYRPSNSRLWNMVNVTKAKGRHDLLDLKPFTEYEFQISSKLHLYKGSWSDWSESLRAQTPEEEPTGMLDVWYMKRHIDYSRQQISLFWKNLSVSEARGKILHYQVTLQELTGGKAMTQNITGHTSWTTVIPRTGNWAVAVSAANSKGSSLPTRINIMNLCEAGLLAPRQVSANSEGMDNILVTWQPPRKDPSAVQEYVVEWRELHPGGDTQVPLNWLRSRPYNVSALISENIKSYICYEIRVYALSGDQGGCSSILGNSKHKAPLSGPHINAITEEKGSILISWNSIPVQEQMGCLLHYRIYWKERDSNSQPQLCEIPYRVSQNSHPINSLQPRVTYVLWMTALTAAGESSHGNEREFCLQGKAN
# test.name: BLI, P.E., off-rate ranking
reported.property: Response
// return a plain number; no unit text

Sample records with Response:
anti-IL-12Rβ2 VHH clone 2CRH10 (clone ID 20362) (VHH, not shown: small tags and cut ends, periplasmic extract) VHH: QVQLQESGGGLVQAGGSLVLSCAASGSAALIFLMSWYRQAPGKQRELVAEVSRGGSTTYADSVEGRFHISRDNAKNIVDLQMNSLKPEDTAVYYCKADQNYGDSLRSSWGRGTQVTVSS    0.496
anti-IL-12Rβ2 VHH clone 3CAHS41 (clone ID 20394) (VHH, not shown: small tags and cut ends, periplasmic extract) VHH: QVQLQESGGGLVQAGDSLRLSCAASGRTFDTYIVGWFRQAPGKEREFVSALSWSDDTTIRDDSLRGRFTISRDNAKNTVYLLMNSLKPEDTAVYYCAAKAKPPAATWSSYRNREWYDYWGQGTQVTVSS    0.609
anti-IL-12Rβ2 VHH clone 3CRH14 (clone ID 20374) (VHH, not shown: small tags and cut ends, periplasmic extract) VHH: QVQLQESGGGLVQPGGSLRLSCAASGFTFSTSGMHWFRQAPGKGLEWVSSIGIIVDSSYYADSVKGRFTISRDNAKNTLFLQMNSLKSEDTAVYYCSKDPTGSSRGQGTQVTVSS    0.438
anti-IL-12Rβ2 VHH clone 3CRH18 (clone ID 20377) (VHH, not shown: small tags and cut ends, periplasmic extract) VHH: QVQLQESGGGLVQPGGSLRLSCTASGNIVSIYNMDWYRQAPGNQREWVASITSSGDPYYDGSAKGRFTISRDNAKMTVYLQMNSLRPEDTAVYYCKVPTEKGNYWGQGTQVTVSS    -0.19
anti-IL-12Rβ2 VHH clone 3CRH38 (clone ID 20381) (VHH, not shown: small tags and cut ends, periplasmic extract) VHH: QVQLQESGGGLVQAGGSLVLSCAASGSAALIFLMSWYRQAPGKQRELVAEVSRGGSTTYADSVEGRFTISRDNAKNIVDLQMNSLKPEDTAVYYCKADQNYGDSLRSSWGRGTQVTVSS    0.475

Data request: Supply measured Response of anti-IL-12Rβ2 VHH clone 3CAHS53 (clone ID 20397) (VHH, not shown: small tags and cut ends, periplasmic extract) VHH: QVQLQESGGGLVEPGGSLRLSCAASGRTINAYIMGWFRQAPGKEREFVAAVSGSGGSTYYADSVKGRFTISRDSAKNTVNLQMDNLRSEDTDVYYCAATYESVYLQNPGQYDYWGQGTQVTVSS in your reply.
Data returned: 0.47

Data request: Name the recorded Response of the binder listed here: anti-IL-12Rβ2 VHH clone 3CAHS150 (clone ID 20403) (VHH, not shown: small tags and cut ends, periplasmic extract) VHH: QVQLQESGGGSVQAGGSLRLSCAASGRTINAYVMGWFRQAPGKEREFVAAISGSGGSTYYADSVKGRFTISRDNAKNTVNLQMDNLRSEDTDVYYCAATYESVYLQNPGQYDYWGQGTQVTVSS
Data returned: 0.31

Data request: Identify measured Response corresponding to anti-IL-12Rβ2 VHH clone 2CRH62 (clone ID 20368) (VHH, not shown: small tags and cut ends, periplasmic extract) VHH: QVQLQESGGGLVQPGGSLRLSCVESGRTFTVYDMGWFRQAPGKEREIVAAISADGATSIYQDSVKGRFTISRDNDAKNTVYLQMNSLKPEDTAVYYCAAGRSLIYNLYRANNTDYWGQGTQVTVSS
Data returned: 0.643
